Target: human sphingosine-1-phosphate receptor 1 (S1P1) (Homo sapiens (Human))
Assay: Inhibition of cAMP production (HTRF cAMP HiRange), S1P1 CHO-K1 cells
Format: cell-based
Conditions: inhibition of cAMP production, S1P1 CHO-K1 cells
Sequence (P21453 whole entry, looked up): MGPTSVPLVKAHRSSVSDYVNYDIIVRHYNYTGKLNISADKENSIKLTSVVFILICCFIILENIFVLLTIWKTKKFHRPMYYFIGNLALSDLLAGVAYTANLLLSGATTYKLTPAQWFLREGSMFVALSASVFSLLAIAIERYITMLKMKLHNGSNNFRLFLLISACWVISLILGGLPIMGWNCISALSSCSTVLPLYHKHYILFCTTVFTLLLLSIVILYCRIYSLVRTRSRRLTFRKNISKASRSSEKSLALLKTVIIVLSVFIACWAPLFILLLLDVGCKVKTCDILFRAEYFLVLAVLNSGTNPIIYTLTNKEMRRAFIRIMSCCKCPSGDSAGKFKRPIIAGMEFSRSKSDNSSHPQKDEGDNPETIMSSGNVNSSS
Measure name: hS1P1 cAMP pEC50

>>> result("CNc1ccccc1-c1coc(-c2ccc3c(c2)nnn3C(C)C)n1")
"<6.5"
>>> result("Cc1ccncc1-c1noc(-c2ccc3c(c2)nnn3C2CCC2)n1")
">6.5"
>>> result("CCC1(CC)CC(=O)c2cc(-c3nc(-c4sccc4OC)no3)ccc2O1")
">6.5"
>>> result("O=C1CCOc2ccc(-c3nc(-c4cccnc4)no3)cc21")
"<6.5"
>>> result("CCC1(CC)CC(=O)c2cc(-c3nc(-c4ccc5[nH]cnc5c4)no3)ccc2O1")
"<6.5"
>>> result("Cc1ccc(-c2noc(-c3ccc4c(c3)nnn4C3CCCCC3)n2)cc1")
"<6.5"
>>> result("Brc1ccccc1-c1nc(-c2ccc3c(c2)nnn3CC2CC2)no1")
"<6.5"
>>> result("CCC1(CC)CC(=O)c2cc(-c3nc(-c4ccc(O)cc4)no3)ccc2O1")
">6.5"
>>> result("CCC1(CC)CC(=O)c2cc(-c3nc(-c4ccnc(O)c4)no3)ccc2O1")
">6.5"
>>> result("CC(C)Nc1ccc(-c2nnc(-c3ccc4oc(=O)[nH]c4c3)o2)cc1C#N")
">6.5"
>>> result("CCC1(CC)CC(=O)c2cc(-c3nc(-c4ccncc4C(F)(F)F)no3)ccc2O1")
">6.5"
>>> result("Cc1ccccc1-c1coc(-c2ccc3c(c2)nnn3C(C)C)n1")
">6.5"
>>> result("COc1ccc(-c2cnc(-c3ccc4c(c3)nnn4C(C)C)s2)cc1")
"<6.5"
>>> result("Cc1ccccc1-c1noc(-c2ccc3c(c2)CCC(=O)N3)n1")
"<6.5"
>>> result("CC(C)(CO)Cn1nnc2cc(-c3noc(-c4ccncc4C(F)(F)F)n3)ccc21")
"<6.5"
>>> result("CCC1(CC)CC(=O)c2cc(-c3nnc(-c4ccccc4OC)s3)ccc2O1")
"<6.5"
>>> result("COc1ccccc1-c1noc(-c2ccc3[nH]ccc3c2)n1")
"<6.5"
>>> result("N#Cc1cc(-c2nnc(-c3ccc4c(c3)CCC(=O)N4)o2)ccc1NCC1CC1")
">6.5"

----------
Molecular target: human sphingosine-1-phosphate receptor 1 (S1P1) (Homo sapiens (Human), UniProt P21453)
Assay: β-Arrestin2 recruitment assay (PathHunter), S1P1 CHO-K1 cells
Type: cell-based
Details: β-arrestin2 recruitment, S1P1 CHO-K1 cells
Sequence (P21453 whole entry, looked up): as above
Sequence (P32121 whole entry partner, looked up): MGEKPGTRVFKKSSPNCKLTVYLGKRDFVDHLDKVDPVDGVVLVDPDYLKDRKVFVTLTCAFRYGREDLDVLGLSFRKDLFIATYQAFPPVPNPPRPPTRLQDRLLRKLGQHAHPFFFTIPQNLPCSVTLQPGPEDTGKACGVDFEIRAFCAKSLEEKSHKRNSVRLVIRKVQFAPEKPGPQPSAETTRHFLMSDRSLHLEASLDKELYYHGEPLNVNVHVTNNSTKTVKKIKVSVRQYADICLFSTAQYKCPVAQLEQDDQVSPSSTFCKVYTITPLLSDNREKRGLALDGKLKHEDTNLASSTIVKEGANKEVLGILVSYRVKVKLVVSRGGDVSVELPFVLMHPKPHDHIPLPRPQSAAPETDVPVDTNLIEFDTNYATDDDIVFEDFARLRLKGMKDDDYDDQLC
Measure name: hS1P1 B-arrestin2 pEC50

>>> result("CCC1(CC)CC(=O)c2cc(-c3nc(-c4ncccn4)no3)ccc2O1 [Compound 640]")
"<5"
>>> result("CNc1ccccc1-c1nc(-c2ccc3c(c2)nnn3C(C)C)no1 [Compound 599]")
">5"
>>> result("O=C1CC2(CCCC2)Oc2ccc(-c3nc(-c4ccncc4)no3)cc21 [Compound 176]")
"<5"
>>> result("Brc1ccccc1-c1nc(-c2ccc3c(c2)nnn3C2CCCCC2)no1 [Compound 115]")
">5"
>>> result("Brc1ccccc1-c1nc(-c2ccc3c(c2)nnn3Cc2ccncc2)no1 [Compound 48]")
"<5"
>>> result("Fc1ccc(-c2noc(-c3ccc4c(c3)nnn4C3CCCC3)n2)cc1 [Compound 232]")
"<5"
>>> result("Cc1cccc(C)c1-c1noc(-c2ccc3c(c2)nnn3C(C)C)n1 [Compound 243]")
"<5"
>>> result("CC(C)n1ccc2cc(-c3nc(-c4ccccc4C(F)(F)F)cs3)ccc21 [Compound 404]")
"<5"
>>> result("CC(C)n1nnc2cc(-c3cc(-c4ccccc4)n(C)c3)ccc21 [Compound 544]")
">5"
